Source of measurements: patent US20120295907A1

System: Tetranychus urticae
assay-overview: Tetranychus urticae (Two-Spotted Spider Mite) bean leaf disc spray test
Type: in vivo
condition-summary: foliar, 192 h, 200 ppm spray on bean leaf discs, mite populations of mixed ages, 8 days, egg, larval and adult mortality, read-out: control of Tetranychus urticae
measure: pest or weed control at 200 ppm

> print(dat)
                                   compound  value.reported
1  COc1c(NC(=O)c2ccc([N+](=O)[O-])cc2)cccc1C(=O)Nc1c(C)cc(C(F)(C(F)(F)F)C(F)(F)F)cc1C           ≥ 80%
2  COc1c(NC(=O)c2ccc(F)cc2)cccc1C(=O)Nc1c(Cl)cc(C(F)(C(F)(F)F)C(F)(F)F)cc1Cl           ≥ 80%
3  COc1c(NC(=O)c2ccc(F)cc2Cl)cccc1C(=O)Nc1c(C)cc(C(F)(C(F)(F)F)C(F)(F)C(F)(F)F)cc1C (stereo not shown)           ≥ 80%
4  COc1c(NC(=O)c2cccc(C#N)c2)cccc1C(=O)Nc1c(C)cc(C(F)(C(F)(F)F)C(F)(F)C(F)(F)F)cc1C (stereo not shown)           ≥ 80%

---

System: Thrips tabaci
assay-overview: Thrips tabaci (Onion Thrips) sunflower leaf disc spray test
Format: in vivo
condition-summary: foliar, 168 h, 200 ppm spray on sunflower leaf discs, population of mixed ages, 7 days, mortality
# Lookup of reported pest or weed control at 200 ppm keyed by entry
measure: pest or weed control at 200 ppm

> print(dat)
                                   compound  value.reported
1  CCc1cc(C(F)(C(F)(F)F)C(F)(F)C(F)(F)F)cc(C)c1NC(=O)c1cccc(NC(=O)c2ccc([N+](=O)[O-])cc2C)c1OC (stereo not drawn) [A22]           ≥ 80%
2  COc1cc(C(=O)Nc2cccc(C(=O)Nc3c(Cl)cc(C(F)(C(F)(F)F)C(F)(F)C(F)(F)F)cc3Br)c2OC)cc(Cl)n1 (stereo not drawn) [B146]           ≥ 80%
3  COc1c(NC(=O)c2ccc(Br)c(C)c2)cccc1C(=O)Nc1c(Cl)cc(C(F)(C(F)(F)F)C(F)(F)C(F)(F)F)cc1Br (stereo not drawn) [B65]           ≥ 80%

---

Below, each of the compounds is paired with its reported pest or weed control at 200 ppm value.
Test system: Thrips tabaci
assay-overview: Thrips tabaci (Onion Thrips) sunflower leaf disc spray test
Format: in vivo
condition-summary: foliar, 168 h, 200 ppm spray on sunflower leaf discs, population of mixed ages, 7 days, mortality
measure: pest or weed control at 200 ppm

> print(dat)
                                    compound                          measure  value.reported
 1  CCc1cc(C(F)(C(F)(F)F)C(F)(F)C(F)(F)F)cc(C)c1NC(=O)c1cccc(NC(=O)c2cccc(Cl)c2)c1OC (stereo not drawn)  pest or weed control at 200 ppm           ≥ 80%
 2  COc1c(NC(=O)c2ccc(C(C)C)cc2)cccc1C(=O)Nc1c(Cl)cc(C(F)(C(F)(F)F)C(F)(F)C(F)(F)F)cc1Br (stereo not drawn)  pest or weed control at 200 ppm           ≥ 80%
 3  COc1c(NC(=O)c2ccc(Br)cc2Cl)cccc1C(=O)Nc1c(Cl)cc(C(F)(C(F)(F)F)C(F)(F)C(F)(F)F)cc1Br (stereo not drawn)  pest or weed control at 200 ppm           ≥ 80%
 4  CCc1cc(C(F)(C(F)(F)F)C(F)(F)C(F)(F)F)cc(C)c1NC(=O)c1cccc(NC(=O)c2ccccc2)c1OC (stereo not drawn)  pest or weed control at 200 ppm           ≥ 80%
 5  COc1c(NC(=O)c2ccc(F)cc2Cl)cccc1C(=O)Nc1c(C)cc(C(F)(C(F)(F)F)C(F)(F)C(F)(F)F)cc1C (stereo not drawn)  pest or weed control at 200 ppm           ≥ 80%
 6  CCc1cc(C(F)(C(F)(F)F)C(F)(F)C(F)(F)F)cc(C)c1NC(=O)c1cccc(NC(=O)c2cccnc2F)c1OC (stereo not drawn)  pest or weed control at 200 ppm           ≥ 80%
 7  COc1c(NC(=O)c2ccncc2C)cccc1C(=O)Nc1c(Cl)cc(C(F)(C(F)(F)F)C(F)(F)C(F)(F)F)cc1Br (stereo not drawn)  pest or weed control at 200 ppm           ≥ 80%
 8  COc1ccc(C(=O)Nc2cccc(C(=O)Nc3c(Cl)cc(C(F)(C(F)(F)F)C(F)(F)C(F)(F)F)cc3Br)c2OC)cc1 (stereo not drawn)  pest or weed control at 200 ppm           ≥ 80%
 9  COc1c(NC(=O)c2ccc([N+](=O)[O-])c(C)c2Cl)cccc1C(=O)Nc1c(Cl)cc(C(F)(C(F)(F)F)C(F)(F)C(F)(F)F)cc1Br (stereo not drawn)  pest or weed control at 200 ppm           ≥ 80%
10  COc1c(NC(=O)c2cccc([N+](=O)[O-])c2Cl)cccc1C(=O)Nc1c(Cl)cc(C(F)(C(F)(F)F)C(F)(F)C(F)(F)F)cc1Br (stereo not drawn)  pest or weed control at 200 ppm           ≥ 80%
11  COc1c(NC(=O)c2ccc(F)cc2F)cccc1C(=O)Nc1c(Cl)cc(C(F)(C(F)(F)F)C(F)(F)C(F)(F)F)cc1Cl (stereo not drawn)  pest or weed control at 200 ppm           ≥ 80%
12  COc1c(NC(=O)c2c(-c3ccccc3)noc2C)cccc1C(=O)Nc1c(Cl)cc(C(F)(C(F)(F)F)C(F)(F)C(F)(F)F)cc1Br (stereo not drawn)  pest or weed control at 200 ppm           ≥ 80%
13  CCc1cc(C(F)(C(F)(F)F)C(F)(F)F)cc(C)c1NC(=O)c1cccc(NC(=O)c2ccc(F)cc2Cl)c1OC  pest or weed control at 200 ppm           ≥ 80%
14  COc1c(NC(=O)c2ccccc2)cccc1C(=O)Nc1c(Cl)cc(C(F)(C(F)(F)F)C(F)(F)F)cc1Cl  pest or weed control at 200 ppm           ≥ 80%
15  COc1c(NC(=O)c2cccc(C)c2[N+](=O)[O-])cccc1C(=O)Nc1c(Cl)cc(C(F)(C(F)(F)F)C(F)(F)C(F)(F)F)cc1Br (stereo not drawn)  pest or weed control at 200 ppm           ≥ 80%
16  COc1c(NC(=O)c2ccnc(F)c2)cccc1C(=O)Nc1c(Cl)cc(C(F)(C(F)(F)F)C(F)(F)C(F)(F)F)cc1Br (stereo not drawn)  pest or weed control at 200 ppm           ≥ 80%
17  COc1c(NC(=O)c2ccc([N+](=O)[O-])cc2Cl)cccc1C(=O)Nc1c(Cl)cc(C(F)(C(F)(F)F)C(F)(F)C(F)(F)F)cc1Cl (stereo not drawn)  pest or weed control at 200 ppm           ≥ 80%
18  COc1c(NC(=O)c2ccc(C)s2)cccc1C(=O)Nc1c(Cl)cc(C(F)(C(F)(F)F)C(F)(F)C(F)(F)F)cc1Br (stereo not drawn)  pest or weed control at 200 ppm           ≥ 80%
19  CCc1cc(C(F)(C(F)(F)F)C(F)(F)C(F)(F)F)cc(C)c1NC(=O)c1cccc(NC(=O)c2ccc(C#N)cc2C)c1OC (stereo not drawn)  pest or weed control at 200 ppm           ≥ 80%
20  CCc1cc(C(F)(C(F)(F)F)C(F)(F)C(F)(F)F)cc(C)c1NC(=O)c1cccc(NC(=O)c2cccnc2Cl)c1OC (stereo not drawn)  pest or weed control at 200 ppm           ≥ 80%
21  COCc1cc(C(F)(C(F)(F)F)C(F)(F)C(F)(F)F)cc(Br)c1NC(=O)c1cccc(NC(=O)c2ccc(F)cc2Cl)c1OC (stereo not drawn)  pest or weed control at 200 ppm           ≥ 80%
22  COc1c(NC(=O)c2ccccc2F)cccc1C(=O)Nc1c(Cl)cc(C(F)(C(F)(F)F)C(F)(F)F)cc1Cl [E1]  pest or weed control at 200 ppm           ≥ 80%
23  COc1c(NC(=O)c2ccc(C#N)cc2)cccc1C(=O)Nc1c(Cl)cc(C(F)(C(F)(F)F)C(F)(F)C(F)(F)F)cc1Cl (stereo not drawn)  pest or weed control at 200 ppm           ≥ 80%
24  COc1c(NC(=O)c2snnc2C)cccc1C(=O)Nc1c(Cl)cc(C(F)(C(F)(F)F)C(F)(F)F)cc1Cl  pest or weed control at 200 ppm           ≥ 80%
25  COc1c(NC(=O)c2ccc(F)cc2C)cccc1C(=O)Nc1c(Cl)cc(C(F)(C(F)(F)F)C(F)(F)C(F)(F)F)cc1Cl (stereo not drawn)  pest or weed control at 200 ppm           ≥ 80%
26  COc1c(NC(=O)c2cccc(F)c2F)cccc1C(=O)Nc1c(Cl)cc(C(F)(C(F)(F)F)C(F)(F)F)cc1Cl  pest or weed control at 200 ppm           ≥ 80%
27  COc1c(NC(=O)c2ccc([N+](=O)[O-])cc2)cccc1C(=O)Nc1c(C)cc(C(F)(C(F)(F)F)C(F)(F)F)cc1C  pest or weed control at 200 ppm           ≥ 80%
